Test system: TNF-α secretion, THP-1 cells
assay summary: Inhibition of TNF-α secretion by LPS-stimulated THP-1
Format: cell-based
experimental context: Homo sapiens, THP-1, 3 h; 0.1 uM; monocytes with LPS; read-out: TNF abetment
Protocol: Inhibition of TNF-α Secretion by a Human Monocytic Cell Line, THP-1. THP-1 cells, growing in log phase, were collected by centrifugation and resuspended in RPMI 1640 (Sigma Aldrich), to a final cell concentration of 2×10^6 cells/ml. […] TNF-α levels were determined by ELISA (TNF Biotrak, GE Healthcare) following the manufacturer's directions. The percentage inhibition was calculated for each compound concentration tested, and the IC50 was calculated for each compound.
// label = condition met if inhibition at 0.1 µM is not less than 20%, otherwise condition not met

Q: Dear colleague, could you confirm whether CCCNC(=O)c1ccc(Nc2nc3nonc3nc2N2CCC(Cc3ccccc3)CC2)cc1 has inhibition at 0.1 µM at or above 20%?
A: condition not met

Q: Form field: inhibition at 0.1 µM at least 20%? Entry: CCOC(=O)c1ccc(Nc2nc3nonc3nc2N2CCC(Oc3ccccc3OC)CC2)cc1
A: condition not met

Q: Identify whether the reported inhibition at 0.1 µM of the following molecule is 20% or greater: Cc1cc(C(=O)NCC(C)C)ccc1Nc1nc2nonc2nc1N1CCC(Cc2ccccc2)CC1
A: condition not met

Q: API: above_or_equal(metric=inhibition at 0.1 µM, cutoff=20%) for item CC(C)NC(=O)c1ccc(Nc2nc3nonc3nc2N2CCC(Cc3ccccc3)CC2)cc1
A: condition not met

Q: # bool: inhibition at 0.1 µM of CCOC(=O)c1ccc(Nc2nc3nonc3nc2N2CCC(Sc3ccc(Cl)cc3)CC2)cc1 >= 20%
A: condition not met

Q: Please check the record CCCNC(=O)c1ccc(Nc2nc3nonc3nc2N2CCC(Sc3ccc(C)cc3)CC2)cc1 and state if its inhibition at 0.1 µM is at or above 20%.
A: condition met

Q: Does the molecule CCOC(=O)c1ccc(Nc2nc3nonc3nc2N2CCC(C(=O)c3ccccc3)CC2)cc1 have recorded inhibition at 0.1 µM that is 20% or more?
A: condition met

Q: Record CCOC(=O)c1ccc(Nc2nc3nonc3nc2Nc2ccc(Oc3ccncc3)cc2)cc1 ; criterion: inhibition at 0.1 µM no lower than 20%. Met?
A: condition met

Q: Assess whether reported inhibition at 0.1 µM for CCOC(=O)c1ccc(Nc2nc3nonc3nc2N2CCC(Oc3ccc(Cl)cc3)CC2)cc1 sits at 20% or higher.
A: condition not met

====

tested on: p38alpha wt (Homo sapiens)
Construct: made in house; host or cells: E. coli XL10-Gold
Sequence (Q16539 whole entry): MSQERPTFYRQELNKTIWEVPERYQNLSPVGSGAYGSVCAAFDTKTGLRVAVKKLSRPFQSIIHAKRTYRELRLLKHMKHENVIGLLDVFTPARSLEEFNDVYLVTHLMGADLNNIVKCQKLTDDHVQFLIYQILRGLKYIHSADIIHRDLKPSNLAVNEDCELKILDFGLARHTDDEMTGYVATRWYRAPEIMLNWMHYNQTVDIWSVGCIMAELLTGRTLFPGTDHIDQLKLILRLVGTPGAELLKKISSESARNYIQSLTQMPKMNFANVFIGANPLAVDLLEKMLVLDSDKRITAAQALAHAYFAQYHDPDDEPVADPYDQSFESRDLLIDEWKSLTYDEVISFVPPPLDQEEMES
assay summary: site-mutated p38 phosphorylation cascade assay, wild type
Format: biochemical
experimental context: compound 10 uM
recorded metric: inhibition at 10 µM
Quote the value and follow it with the unit of measurement.

Q: // inhibition at 10 µM lookup, key: CC(C)NC(=O)c1ccc(Nc2nc3nonc3nc2N2CCC(Cc3ccccc3)CC2)cc1
A: 62%

Q: Returns the measured inhibition at 10 µM for the input compound. Input: CCOC(=O)c1ccc(Nc2nc3nonc3nc2N2CCC(Oc3ccccc3OC)CC2)cc1
A: 32%

Q: Need inhibition at 10 µM of CCOC(=O)c1ccc(Nc2nc3nonc3nc2N2CCC(Oc3ccc(Cl)cc3)CC2)cc1 , thanks.
A: 59%

Q: Look at this compound and give its reported inhibition at 10 µM. CCOC(=O)c1ccc(Nc2nc3nonc3nc2Nc2ccc(Oc3ccncc3)cc2)cc1
A: 88%

Q: Suppose we examine the compound Cc1cc(C(=O)NCC(C)C)ccc1Nc1nc2nonc2nc1N1CCC(Cc2ccccc2)CC1 ; what inhibition at 10 µM value has been reported?
A: 83%

Q: Endpoint output: inhibition at 10 µM of CCOC(=O)c1ccc(NNc2nc3nonc3nc2N2CCC(Cc3ccccc3)CC2)cc1 . Value?
A: 66%

Q: What inhibition at 10 µM value was documented for this compound, CCOC(=O)c1ccc(Nc2nc3nonc3nc2Nc2ccc(C(=O)c3ccccc3)cc2)cc1 ?
A: 73%

Q: Dear colleague, I am looking for the recorded inhibition at 10 µM of the following compound: CC(C)NC(=O)c1cccc(Nc2nc3nonc3nc2N2CCC(Cc3ccccc3)CC2)c1
A: 71%

Q: Looking for the measured inhibition at 10 µM of CCOC(=O)N1CCN(C2=Nc3nnnn3C3CC4CN(Cc5ccccc5)CCC4C23)CC1 (centres unmarked) , can you help?
A: 23%

Q: Fill in: inhibition at 10 µM of CCOC(=O)c1ccc(Nc2nc3nonc3nc2NN=Cc2cccc3ccccc23)cc1 is ___
A: 81%

Q: # inhibition at 10 µM lookup, item COC(=O)c1ccc(Nc2nc3nonc3nc2N2CCC(Oc3ccc(Cl)cc3)CC2)cc1
A: 84%

Q: Name the recorded inhibition at 10 µM for CCOC(=O)c1ccc(Nc2nc3nonc3nc2N2CCC(Cc3ccccc3)CC2)cc1 .
A: 64%

Q: For O=C(O)c1ccc(Nc2nc3nonc3nc2N2CCC(Cc3ccccc3)CC2)cc1 , what is its reported inhibition at 10 µM?
A: 23%

Q: Entry under review: O=C([O][Na+])c1ccc(Nc2nc3nonc3nc2N2CCC(Cc3ccccc3)CC2)cc1 . Reported inhibition at 10 µM?
A: 25%

Q: # lookup: inhibition at 10 µM of CCCNC(=O)c1ccc(Nc2nc3nonc3nc2N2CCC(Cc3ccccc3)CC2)cc1
A: 71%

Q: Look at this compound and give its reported inhibition at 10 µM. CCOC(=O)c1ccc(Nc2nc3nonc3nc2N2CCC(C(=O)c3ccccc3)CC2)cc1
A: 56%

Q: # input compound: CCOC(=O)c1ccc(Nc2nc3nonc3nc2N2CCC(Sc3ccc(Cl)cc3)CC2)cc1 ; wanted: its inhibition at 10 µM
A: 86%

====

Tested on: THP-1 cells
assay summary: survival of monocytes with LPS
Assay type: cell-based, human
experimental context: 10 uM
# Cell survival >= 90% gives Satisfied, anything below gives Not satisfied

Q: Say whether CCOC(=O)c1ccc(Nc2nc3nonc3nc2Nc2ccc(C(=O)c3ccccc3)cc2)cc1 [Compound 26] shows Cell survival of 90% or more.
A: Not satisfied

Q: Is the recorded value of Cell survival equal to or greater than 90% for this molecule? CCOC(=O)c1ccc(Nc2nc3nonc3nc2N2CCC(Cc3ccccc3)CC2)cc1 [Compound 1]
A: Satisfied

Q: Given the entry CCOC(=O)N1CCN(C2=Nc3nnnn3C3CC4CN(Cc5ccccc5)CCC4C23)CC1 (centres unmarked) [Compound 32] , answer whether its Cell survival meets or surpasses 90%.
A: Satisfied

Q: Check if Cell survival >= 90% (inclusive). Item: CCOC(=O)c1ccc(Nc2nc3nonc3nc2Nc2ccc(Oc3ccncc3)cc2)cc1 [Compound 27]
A: Not satisfied

Q: Is reported Cell survival greater than or equal to 90% here: CCCNC(=O)c1ccc(Nc2nc3nonc3nc2N2CCC(Cc3ccccc3)CC2)cc1 [Compound 19]
A: Satisfied

Q: Check if Cell survival >= 90% (inclusive). Item: CCOC(=O)c1ccc(Nc2nc3nonc3nc2N2CCC(Oc3ccc(Cl)cc3)CC2)cc1 [Compound 25]
A: Not satisfied

====

tested on: p38αR186A (Homo sapiens, UniProt Q16539, R186A)
Construct: made in house; host or cells: E. coli XL10-Gold
Sequence (Q16539 whole entry R186A): as the sequence (Q16539 whole entry) above, with R186A counted along it
assay summary: site-mutated p38 phosphorylation cascade assay, R186A mutant
Format: biochemical
experimental context: compound 10 uM
# if value of inhibition at 10 µM reaches 30%, tag criterion met; if it stays below, tag criterion not met

Q: For this molecule, is measured inhibition at 10 µM 30% or higher? CCOC(=O)c1ccc(Nc2nc3nonc3nc2N2CCC(Sc3ccc(C)cc3)CC2)cc1
A: criterion not met

Q: Entry CCCNC(=O)c1ccc(Nc2nc3nonc3nc2N2CCC(Sc3ccc(C)cc3)CC2)cc1 : is its inhibition at 10 µM no less than 30%?
A: criterion met

Q: Textbook exercise: given the entry CCOC(=O)c1ccc(Nc2nc3nonc3nc2N2CCN(Cc3ccccc3C)CC2)cc1 , state whether its inhibition at 10 µM is greater than or equal to 30%.
A: criterion not met

Q: Is it the case that CCOC(=O)c1ccc(Nc2nc3nonc3nc2Nc2ccc(C(=O)c3ccccc3)cc2)cc1 has inhibition at 10 µM reaching or exceeding 30%?
A: criterion met

Q: State whether the measured inhibition at 10 µM reaches 30%, counting equality as reaching it, for CCOC(=O)c1ccc(NNc2nc3nonc3nc2N2CCC(Cc3ccccc3)CC2)cc1
A: criterion met

Q: Evaluate CC(C)NC(=O)c1cccc(Nc2nc3nonc3nc2N2CCC(Cc3ccccc3)CC2)c1 : inhibition at 10 µM at minimum 30%?
A: criterion met

Q: Hello, I need to know if CCOC(=O)N1CCN(C2=Nc3nnnn3C3CC4CN(Cc5ccccc5)CCC4C23)CC1 (centres unmarked) has measured inhibition at 10 µM not below 30%. Thanks!
A: criterion not met

Q: Reported inhibition at 10 µM reaches at least 30% for O=C(O)c1ccc(Nc2nc3nonc3nc2N2CCC(Cc3ccccc3)CC2)cc1 ?
A: criterion not met

Q: inhibition at 10 µM >= 30% for CCOC(=O)c1ccc(Nc2nc3nonc3nc2N2CCC(Sc3ccc(Cl)cc3)CC2)cc1 ?
A: criterion met

Q: State whether the measured inhibition at 10 µM reaches 30%, counting equality as reaching it, for CCOC(=O)c1ccc(Nc2nc3nonc3nc2N2CCC(Oc3ccncc3)CC2)cc1
A: criterion not met

Q: Exam item: decide whether the reported inhibition at 10 µM for CC(C)NC(=O)c1ccc(Nc2nc3nonc3nc2N2CCC(Cc3ccccc3)CC2)cc1 is at least 30%.
A: criterion met
